Where these numbers come from: patent US20250120967A1

# tested.on: DDR1 (Homo sapiens, UniProt Q08345)
# Sequence (Q08345 19-913): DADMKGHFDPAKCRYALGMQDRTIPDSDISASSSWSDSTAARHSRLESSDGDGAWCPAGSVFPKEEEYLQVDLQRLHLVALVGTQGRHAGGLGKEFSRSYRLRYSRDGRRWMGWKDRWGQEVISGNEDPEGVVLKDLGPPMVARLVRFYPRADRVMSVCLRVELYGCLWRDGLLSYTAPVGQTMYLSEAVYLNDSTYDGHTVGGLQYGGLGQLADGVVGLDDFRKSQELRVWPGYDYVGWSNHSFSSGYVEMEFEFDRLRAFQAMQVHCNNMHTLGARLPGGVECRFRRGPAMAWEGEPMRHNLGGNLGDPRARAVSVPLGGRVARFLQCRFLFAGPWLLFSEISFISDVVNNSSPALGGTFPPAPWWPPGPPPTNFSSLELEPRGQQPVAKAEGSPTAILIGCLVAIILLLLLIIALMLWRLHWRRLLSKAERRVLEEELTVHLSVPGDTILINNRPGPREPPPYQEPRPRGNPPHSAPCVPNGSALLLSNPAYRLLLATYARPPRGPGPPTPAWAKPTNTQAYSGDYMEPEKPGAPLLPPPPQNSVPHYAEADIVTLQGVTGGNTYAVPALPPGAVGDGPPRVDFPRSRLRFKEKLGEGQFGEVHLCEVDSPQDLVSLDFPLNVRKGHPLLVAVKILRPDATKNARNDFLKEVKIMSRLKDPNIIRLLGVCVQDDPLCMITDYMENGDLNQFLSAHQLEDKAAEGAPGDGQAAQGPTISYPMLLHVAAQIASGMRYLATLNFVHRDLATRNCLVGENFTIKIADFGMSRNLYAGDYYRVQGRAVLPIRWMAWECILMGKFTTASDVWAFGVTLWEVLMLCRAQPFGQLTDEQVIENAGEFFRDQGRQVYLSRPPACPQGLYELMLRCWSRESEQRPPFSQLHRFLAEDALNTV
# experiment.notes: Tyrosine kinase inhibition assay
# Type: biochemical
# run.conditions: single concentration 1.0 μM, read-out: percent inhibition
measured.quantity: inhibition at 1 µM (%)
Give the quantity in %, number only.

compound	tested.on	measure.unit	experimental.result
COc1cc2nccc(Oc3ccc(NC(=O)C4(C(=O)Nc5ccc(F)cc5)CC4)cc3)c2cc1OC [Cabozantinib, reference compound]	DDR1 (Homo sapiens, UniProt Q08345)	%	100

So, COc1cc2nccc(Oc3ccc(NC(=O)C4(NC(=O)c5ccc(F)cc5)CC4)cc3F)c2cc1OC ? Its inhibition at 1 µM was 51

Documented inhibition at 1 µM of COc1cc2nccc(Oc3ccc(NC(=O)C4(NC(=O)c5ccc(F)cc5)CC4)cc3F)c2cc1Oc1c(F)cc(N)cc1F : 53

Form: compound = COc1cc2nccc(Oc3ccc(NC(=O)C4(NC(=O)c5ccc(F)cc5)CC4)cc3F)c2cc1Oc1ccc(N)cc1F ; inhibition at 1 µM = 50

Looking up COc1cc2nccc(Oc3ccc(NC(=O)C4(C(=O)Nc5ccc(F)cc5)CC4)cc3F)c2cc1Oc1ccc(N)cc1F , I see its inhibition at 1 µM listed as 92

* * *

Each item that follows carries a reported IC50.
# tested.on: TYRO3 (RSE) (Homo sapiens, UniProt Q06418)
# Sequence (Q06418 41-890): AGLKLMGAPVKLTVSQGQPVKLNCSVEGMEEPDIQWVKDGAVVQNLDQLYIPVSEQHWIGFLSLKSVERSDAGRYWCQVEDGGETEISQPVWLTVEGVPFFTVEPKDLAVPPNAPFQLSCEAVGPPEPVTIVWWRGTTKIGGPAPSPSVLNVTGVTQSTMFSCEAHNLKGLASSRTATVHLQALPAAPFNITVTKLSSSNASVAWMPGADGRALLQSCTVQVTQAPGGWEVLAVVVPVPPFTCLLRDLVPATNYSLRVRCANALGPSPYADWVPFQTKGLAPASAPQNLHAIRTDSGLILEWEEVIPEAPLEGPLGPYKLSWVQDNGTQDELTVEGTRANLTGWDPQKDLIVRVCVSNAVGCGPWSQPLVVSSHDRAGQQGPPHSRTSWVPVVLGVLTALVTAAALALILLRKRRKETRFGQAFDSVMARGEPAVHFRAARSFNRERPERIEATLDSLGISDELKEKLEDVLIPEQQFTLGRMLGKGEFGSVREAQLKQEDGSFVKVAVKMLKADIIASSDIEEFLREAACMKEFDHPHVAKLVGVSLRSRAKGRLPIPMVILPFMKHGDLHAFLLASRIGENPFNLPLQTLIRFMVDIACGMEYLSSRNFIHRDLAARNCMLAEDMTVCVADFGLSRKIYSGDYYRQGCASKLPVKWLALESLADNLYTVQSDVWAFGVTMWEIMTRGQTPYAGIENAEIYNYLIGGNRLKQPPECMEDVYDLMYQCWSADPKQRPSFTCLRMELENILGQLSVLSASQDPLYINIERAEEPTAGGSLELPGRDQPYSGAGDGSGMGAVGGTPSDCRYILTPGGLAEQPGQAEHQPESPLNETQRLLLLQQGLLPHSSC
# experiment.notes: Tyrosine kinase inhibition assay
# Format: biochemical
# run.conditions: TYRO3 (RSE); read-out: IC50 of compound
Entry rule: numbers only, all in nM.

molecule	IC50 [nM]
COc1cc2nccc(Oc3ccc(NC(=O)C4(C(=O)Nc5ccc(F)cc5)CC4)cc3F)c2cc1Oc1ccc(N)cc1F	12.5

// next entry
Reported IC50 for CNC(=O)c1cc2c(Oc3ccc(NC(=O)C4(C(=O)Nc5ccc(F)cc5)CC4)cc3)ccnc2cc1OC [Zanzalintinib, reference compound] was 9.49

* * *

# tested.on: IGF1R (Homo sapiens)
# Sequence (P08069 31-1367): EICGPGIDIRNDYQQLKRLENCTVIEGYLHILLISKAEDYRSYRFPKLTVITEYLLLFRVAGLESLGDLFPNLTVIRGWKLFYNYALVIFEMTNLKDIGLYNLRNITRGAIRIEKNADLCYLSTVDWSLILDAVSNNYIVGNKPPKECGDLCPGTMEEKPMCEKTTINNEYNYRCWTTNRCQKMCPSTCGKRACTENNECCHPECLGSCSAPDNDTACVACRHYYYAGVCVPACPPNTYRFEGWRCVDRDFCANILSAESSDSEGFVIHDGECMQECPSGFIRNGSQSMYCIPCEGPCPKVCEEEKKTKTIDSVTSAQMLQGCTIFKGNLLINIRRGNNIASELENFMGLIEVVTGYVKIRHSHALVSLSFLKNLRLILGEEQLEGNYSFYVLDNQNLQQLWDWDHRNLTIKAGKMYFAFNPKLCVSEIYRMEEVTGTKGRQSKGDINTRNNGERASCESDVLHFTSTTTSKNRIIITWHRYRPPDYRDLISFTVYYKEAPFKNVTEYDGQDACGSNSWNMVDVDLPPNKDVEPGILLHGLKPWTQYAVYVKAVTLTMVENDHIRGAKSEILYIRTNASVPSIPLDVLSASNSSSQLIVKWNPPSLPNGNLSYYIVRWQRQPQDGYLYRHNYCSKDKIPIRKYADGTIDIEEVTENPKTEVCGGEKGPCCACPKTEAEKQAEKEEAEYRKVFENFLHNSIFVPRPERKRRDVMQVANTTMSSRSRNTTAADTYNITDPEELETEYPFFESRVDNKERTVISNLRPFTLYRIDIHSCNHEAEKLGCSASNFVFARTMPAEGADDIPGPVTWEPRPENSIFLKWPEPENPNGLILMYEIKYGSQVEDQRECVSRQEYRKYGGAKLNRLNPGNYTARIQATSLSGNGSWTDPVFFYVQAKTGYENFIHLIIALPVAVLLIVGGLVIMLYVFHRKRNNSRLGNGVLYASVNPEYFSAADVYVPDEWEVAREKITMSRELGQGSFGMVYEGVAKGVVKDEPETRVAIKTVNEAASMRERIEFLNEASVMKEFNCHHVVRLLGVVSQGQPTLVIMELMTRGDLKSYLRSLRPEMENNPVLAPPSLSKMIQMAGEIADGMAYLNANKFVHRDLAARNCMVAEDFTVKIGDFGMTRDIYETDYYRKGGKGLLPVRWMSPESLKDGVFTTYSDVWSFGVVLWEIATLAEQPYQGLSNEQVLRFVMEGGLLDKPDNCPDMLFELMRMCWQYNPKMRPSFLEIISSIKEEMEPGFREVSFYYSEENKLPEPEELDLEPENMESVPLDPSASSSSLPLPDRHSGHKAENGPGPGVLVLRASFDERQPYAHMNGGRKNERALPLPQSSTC
# experiment.notes: Tyrosine kinase inhibition assay
# Assay type: biochemical
# run.conditions: single concentration 1.0 μM, read-out: percent inhibition
measured.quantity: inhibition at 1 µM (%)
// return numeric value only (unit: %, not printed)

compound	measure.unit	inhibition at 1 µM
COc1cc2nccc(Oc3ccc(NC(=O)C4(NC(=O)c5ccc(F)cc5)CC4)cc3F)c2cc1OC	%	13
COc1cc2nccc(Oc3ccc(NC(=O)C4(C(=O)Nc5ccc(F)cc5)CC4)cc3)c2cc1OC [Cabozantinib, reference compound]	%	15
COc1cc2nccc(Oc3ccc(NC(=O)C4(C(=O)Nc5ccc(F)cc5)CC4)cc3F)c2cc1Oc1ccc(N)cc1F	%	52

get_value(item= COc1cc2nccc(Oc3ccc(NC(=O)C4(NC(=O)c5ccc(F)cc5)CC4)cc3F)c2cc1Oc1c(F)cc(N)cc1F , readout=inhibition at 1 µM) returns 35

Lab note: COc1cc2nccc(Oc3ccc(NC(=O)C4(NC(=O)c5ccc(F)cc5)CC4)cc3F)c2cc1Oc1ccc(N)cc1F gave inhibition at 1 µM of 27

* * *

# tested.on: PTK6 (Brk) (Homo sapiens, UniProt Q13882)
# Sequence (Q13882 whole entry): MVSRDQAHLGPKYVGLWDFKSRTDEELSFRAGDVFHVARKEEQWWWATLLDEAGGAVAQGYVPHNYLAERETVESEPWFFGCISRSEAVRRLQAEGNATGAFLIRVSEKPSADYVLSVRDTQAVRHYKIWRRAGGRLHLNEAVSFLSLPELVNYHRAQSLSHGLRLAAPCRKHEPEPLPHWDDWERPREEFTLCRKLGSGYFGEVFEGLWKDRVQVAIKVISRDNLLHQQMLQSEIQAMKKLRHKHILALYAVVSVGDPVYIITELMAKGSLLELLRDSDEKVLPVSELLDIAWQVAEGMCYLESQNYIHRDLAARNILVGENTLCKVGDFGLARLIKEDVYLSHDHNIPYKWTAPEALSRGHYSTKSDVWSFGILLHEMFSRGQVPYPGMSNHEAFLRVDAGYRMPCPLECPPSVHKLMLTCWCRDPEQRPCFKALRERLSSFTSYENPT
# experiment.notes: Tyrosine kinase inhibition assay
# Assay type: biochemical
# run.conditions: single concentration 1.0 μM, read-out: percent inhibition
Some molecules, each annotated with its measured inhibition at 1 µM.
State just the number; it will be interpreted in %.

Answered cases to consult:
molecule	inhibition at 1 µM / %
COc1cc2nccc(Oc3ccc(NC(=O)C4(C(=O)Nc5ccc(F)cc5)CC4)cc3F)c2cc1Oc1ccc(N)cc1F [Cbo-23]	97
COc1cc2nccc(Oc3ccc(NC(=O)C4(C(=O)Nc5ccc(F)cc5)CC4)cc3)c2cc1OC [Cabozantinib, reference compound]	103
COc1cc2nccc(Oc3ccc(NC(=O)C4(NC(=O)c5ccc(F)cc5)CC4)cc3F)c2cc1Oc1c(F)cc(N)cc1F [Cbo-14]	94

// recorded inhibition at 1 µM for COc1cc2nccc(Oc3ccc(NC(=O)C4(NC(=O)c5ccc(F)cc5)CC4)cc3F)c2cc1OC [Cbo-02] : 73

* * *

# Tested on: MDA-MB-453 cells
# experiment.notes: In vitro cytotoxicity assay (MTT, 72 h)
# Type: cell-based
# run.conditions: Homo sapiens, growth inhibition
This section presents molecules with their documented IC50 values.

Check out these entries, answers already filled in.
molecule	IC50
CC(CN)NC(=O)c1cc(Oc2ccc(N(C(=O)C3(C(N)=O)CC3)c3ccc(F)cc3)cc2F)ccn1 (stereo not drawn)	> 25 µM
COc1cc2nccc(Oc3ccc(NC(=O)C4(NC(=O)c5ccc(F)cc5)CC4)cc3F)c2cc1Oc1ccc(N)cn1	> 25 µM

# ---- query molecule ----
The reported IC50 of the molecule COc1cc2nccc(Oc3ccc(NC(=O)C4(NC(=O)c5ccc(F)cc5)CC4)cc3F)c2cc1Oc1cccc(N)c1 was > 25 µM

* * *

This listing pairs compounds with measured inhibition at 1 µM.
# tested.on: BRAF (Homo sapiens, UniProt P15056)
# Sequence (P15056 whole entry): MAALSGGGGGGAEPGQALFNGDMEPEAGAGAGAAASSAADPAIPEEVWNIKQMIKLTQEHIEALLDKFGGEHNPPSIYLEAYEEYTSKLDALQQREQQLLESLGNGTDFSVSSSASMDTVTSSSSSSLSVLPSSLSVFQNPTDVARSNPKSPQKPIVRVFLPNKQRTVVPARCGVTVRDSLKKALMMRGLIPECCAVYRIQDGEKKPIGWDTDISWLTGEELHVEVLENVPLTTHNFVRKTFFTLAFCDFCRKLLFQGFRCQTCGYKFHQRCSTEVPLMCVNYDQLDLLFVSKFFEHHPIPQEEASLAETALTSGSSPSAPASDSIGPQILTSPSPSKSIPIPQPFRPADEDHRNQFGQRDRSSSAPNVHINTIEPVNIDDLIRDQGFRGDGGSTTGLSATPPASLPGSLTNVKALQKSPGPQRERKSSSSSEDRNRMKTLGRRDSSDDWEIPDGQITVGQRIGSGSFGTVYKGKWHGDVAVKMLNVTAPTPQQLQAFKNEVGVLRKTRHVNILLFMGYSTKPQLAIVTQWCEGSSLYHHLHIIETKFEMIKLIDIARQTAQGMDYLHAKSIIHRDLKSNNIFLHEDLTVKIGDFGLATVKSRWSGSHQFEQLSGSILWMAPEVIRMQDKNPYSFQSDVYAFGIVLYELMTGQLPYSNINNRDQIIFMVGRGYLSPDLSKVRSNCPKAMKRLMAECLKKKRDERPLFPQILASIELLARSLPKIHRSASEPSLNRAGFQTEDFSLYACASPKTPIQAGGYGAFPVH
# experiment.notes: Tyrosine kinase inhibition assay
# Type: biochemical
# run.conditions: single concentration 1.0 μM, read-out: percent inhibition

Reported inhibition at 1 µM for COc1cc2nccc(Oc3ccc(NC(=O)C4(C(=O)Nc5ccc(F)cc5)CC4)cc3)c2cc1OC [Cabozantinib, reference compound] was 13%

The value of inhibition at 1 µM measured for the compound COc1cc2nccc(Oc3ccc(NC(=O)C4(NC(=O)c5ccc(F)cc5)CC4)cc3F)c2cc1Oc1ccc(N)cc1F turned out to be 4%

For reference, reported inhibition at 1 µM for COc1cc2nccc(Oc3ccc(NC(=O)C4(NC(=O)c5ccc(F)cc5)CC4)cc3F)c2cc1OC stands at 4%
